Compiled IC50 measurements on human ACC2 (Homo sapiens (Human), UniProt O00763) taken from the literature.
value type: IC50 (µM)

Tested system human ACC2 (Homo sapiens (Human), UniProt O00763); IC50 recorded for CC(=O)N[C@@H](C)c1ccc(O[C@@H]2CCN(c3cccc(N(C)C4CCCC4)n3)C2)cc1 was 0.17

Tested system human ACC2 (Homo sapiens (Human), UniProt O00763); IC50 recorded for CC(C)C(=O)N[C@@H](C)c1ccc(OC2CCN(c3cccc(C(F)(F)F)n3)C2)cc1 (stereo partly shown) was 0.869

Tested system human ACC2 (Homo sapiens (Human), UniProt O00763); IC50 recorded for COc1ccc(C#Cc2ccc(CC(C)NC(=O)C3CC3)cc2)cc1 (stereo not shown) was 0.96

(1) CC(C(=O)NC1CC1)c1ccc(C2CCN(c3ccc(OCC4CC4)cc3C#N)CC2)cc1 (stereo not shown)
(2) COc1ccccc1C(Cn1c(=O)n(C(C)(C)C(=O)O)c(=O)c2c(C)c(-c3ncco3)sc21)O[C@@H]1C[C@@H]2CC(O)(C3CC3)C[C@@H]2C1 (stereo partly shown)
(3) CCC(=O)NC(C)Cc1ccc(C2CN(c3ccc(OCC4CC4)cc3)C2)cc1 (stereo not shown)
(4) C[C@H](NC(=O)c1cc[nH]n1)c1ccc(OC2CCN(c3cccc(C(F)(F)F)n3)C2)cc1 (stereo partly shown)
Problem: List the 4 entries from lowest IC50 to highest IC50 value. Note for the reader: the ranking is given by listing the labels in the order requested.
Result: 2, 4, 1, 3
(2: 0.00113 µM, 4: 0.045 µM, 1: 0.15 µM, 3: 0.89 µM)

###

Compiled pIC50 measurements on human ACC2 (Homo sapiens (Human), UniProt O00763) taken from the literature.
pIC50: −log10 of the molar value.
value type: pIC50

The examples below pair each entry with its known result.
Documented pIC50 of CC(=O)NC(C)Cc1ccc(C#Cc2ccc(OC3CC3)cc2)cc1 (centres unmarked) : 6.92

Documented pIC50 of C=CCC(=O)NC(C)Cc1ccc(C2CN(c3ccc(OCC4CC4)cc3)C2)cc1 (centres unmarked) : 5.97

Documented pIC50 of CCCNc1nccc(N2CCC(Oc3ccc([C@H](C)NC(=O)OC)cc3)C2)c1F (some centres unmarked) : 7.11

Documented pIC50 of CCCOc1ccc(N2CC(c3ccc([C@H](C)NC(C)=O)cc3)C2)cc1 : 6.29

Documented pIC50 of COC(=O)c1ccc2c(c1)CCN(Cc1ccc(C(C)NC(C)=O)cc1)C2 (centres unmarked) : 6.28

Documented pIC50 of C[C@H](NC(=O)C1CC1)c1ccc(C#Cc2cnc(OCC3CC3)nc2)cc1 : 5.35

(1) CC(=O)NC(C)Cc1ccc(C#Cc2ccc(OCCC3CC3)cc2)cc1 (centres unmarked)
(2) C[C@H](NC(=O)c1cn(C)nc1C#N)c1ccc(O[C@@H]2CCN(c3ccc(OCC4CC4)cc3)C2)cc1
Problem: Return label of the item with the larger pIC50. Candidates: 1 , 2 . Output the label that corresponds to your choice.
Result: 1
(1: 7.22, 2: 6.38)

(a) CC(=O)N[C@@H](C)c1ccc(O[C@@H]2CCN(c3ccnc(OC(C)c4ccccc4)c3)C2)cc1 (some centres unmarked)
(b) CC(=O)N[C@@H](C)c1ccc(OC2CCN(c3cnc(OCC4CC4(F)F)cc3C)C2)cc1 (some centres unmarked)
Problem: Could you determine which record has the numerically smaller pIC50? Candidates: a and b Output the label that corresponds to your choice.
Result: b
